Let's look at some binders and their measured active PAI-1 by uPA-PAI-1 complex ELISA, Cyno PAI-1, IC50.
Target: cynomolgus PAI-1 (cynomolgus monkey (Macaca fascicularis), UniProt P05121 24-402 (human entry))
Sequence (P05121 other isoform, or with tags, fused parts or gaps limits assumed): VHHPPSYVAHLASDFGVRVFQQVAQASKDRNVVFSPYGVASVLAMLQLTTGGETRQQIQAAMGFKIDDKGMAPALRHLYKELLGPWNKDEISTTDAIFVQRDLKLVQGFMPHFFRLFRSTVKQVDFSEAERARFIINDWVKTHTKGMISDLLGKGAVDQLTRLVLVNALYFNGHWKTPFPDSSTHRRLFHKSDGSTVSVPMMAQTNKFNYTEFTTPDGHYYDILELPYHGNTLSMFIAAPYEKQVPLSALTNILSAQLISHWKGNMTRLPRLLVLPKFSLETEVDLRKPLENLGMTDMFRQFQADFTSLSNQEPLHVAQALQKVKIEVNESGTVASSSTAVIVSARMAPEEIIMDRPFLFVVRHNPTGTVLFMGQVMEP
Experiment: cell-based or functional assay
Field: numeric (nM). Do not append units.

A44-hv12 (antibody, V domains shown, humanized A44, HEK293; constant regions as for A44-hv1; also called LC4 x HC3; variant 12) VH: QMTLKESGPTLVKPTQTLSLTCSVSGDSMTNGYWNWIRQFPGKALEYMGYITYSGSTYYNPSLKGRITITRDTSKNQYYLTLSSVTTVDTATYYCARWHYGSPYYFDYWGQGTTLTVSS VL: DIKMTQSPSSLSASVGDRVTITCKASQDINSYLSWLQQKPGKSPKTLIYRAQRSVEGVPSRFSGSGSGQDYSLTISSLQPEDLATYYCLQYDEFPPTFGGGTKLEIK; 0.0266

active PAI-1 by uPA-PAI-1 complex ELISA, Cyno PAI-1, IC50 lookup needed for A44-hv14 (antibody, V domains shown, humanized A44, HEK293; constant regions as for A44-hv1; also called LC4 x HC5b; variant 14) VH: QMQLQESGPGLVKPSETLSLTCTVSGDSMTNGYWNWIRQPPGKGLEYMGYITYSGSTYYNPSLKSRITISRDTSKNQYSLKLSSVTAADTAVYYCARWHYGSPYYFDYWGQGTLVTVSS VL: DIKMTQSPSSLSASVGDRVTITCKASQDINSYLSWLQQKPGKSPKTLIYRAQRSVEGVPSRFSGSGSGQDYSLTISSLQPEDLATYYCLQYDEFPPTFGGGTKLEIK , thanks.
0.0287

Suppose we examine the binder A44-hv11 (antibody, V domains shown, humanized A44, HEK293; compared with a human IgG1 isotype control; constant regions as for A44-hv1; also called A44V11; A44v11) VH: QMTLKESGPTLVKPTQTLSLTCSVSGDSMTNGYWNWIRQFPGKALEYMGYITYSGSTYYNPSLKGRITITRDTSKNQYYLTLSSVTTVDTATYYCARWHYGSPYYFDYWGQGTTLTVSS VL: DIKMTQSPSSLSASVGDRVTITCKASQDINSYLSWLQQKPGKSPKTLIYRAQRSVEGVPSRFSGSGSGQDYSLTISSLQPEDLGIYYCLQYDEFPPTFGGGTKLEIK ; what active PAI-1 by uPA-PAI-1 complex ELISA, Cyno PAI-1, IC50 value has been reported?
0.0424

Which active PAI-1 by uPA-PAI-1 complex ELISA, Cyno PAI-1, IC50 is listed for A44-hv13 (antibody, V domains shown, humanized A44, HEK293; constant regions as for A44-hv1; also called LC2 x HC5b; variant 13) VH: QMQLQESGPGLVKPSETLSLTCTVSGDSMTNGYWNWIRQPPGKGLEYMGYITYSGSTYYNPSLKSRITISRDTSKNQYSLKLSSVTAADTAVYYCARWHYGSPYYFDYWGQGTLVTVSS VL: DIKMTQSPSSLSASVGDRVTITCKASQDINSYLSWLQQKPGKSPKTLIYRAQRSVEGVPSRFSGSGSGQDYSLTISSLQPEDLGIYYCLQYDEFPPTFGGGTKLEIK ?
0.0281
